MEASUREMENT DESCRIPTION: In vitro peptide stability in 10% rodent brain homogenate
Type: in vitro ADME, rat
SETTINGS: rat, fresh 10% brain homogenate; 10% brain homogenate, 37° C.
QUANTITY: half-life at 2.5 mmol per ml

[[record]]
substance = "H-TNPNRRNRTPQMLKR-OH [15merTNP, reference compound]"
quantity = "half-life at 2.5 mmol per ml"
result = "< 0.75 h"

[[record]]
substance = "Ac-NRTPQMLKR-NH2 [MP2]"
quantity = "half-life at 2.5 mmol per ml"
result = "> 24 h"


Where do these numbers come from? They come from patent US8492341B2.
